test: Kinetic assay of purified DAOCS with penicillin N as main substrate; format: biochemical; conditions: for penicillin N; 0.5 μg purified DAOCS, 30° C., 10 minutes

Molecule	kcat
YS5: mutated penicillin expandase (DAOCS) with substitution V275I (protein, UniProt P18548 1-311, looked up, variant V275I) Deacetoxycephalosporin C …: MDTTVPTFSLAELQQGLHQDEFRRCLRDKGLFYLTDCGLTDTELKSAKDLVIDFFEHGSEAEKRAVTSPVPTMRRGFTGLESESTAQITNTGSYSDYSMCYSMGTADNLFPSGDFERIWTQYFDRQYTASRAVAREVLRATGTEPDGGVEAFLDCEPLLRFRYFPQVPEHRSAEEQPLRMAPHYDLSMVTLIQQTPCANGFVSLQAEVGGAFTDLPYRPDAVLVFCGAIATLVTGGQVKAPRHHVAAPRRDQIAGSSRTSSVFFLRPNADFTFSIPLARECGFDVSLDGETATFQDWIGGNYVNIRRTSKA	0.252 ± 0.020 S^−1
YS59: mutated penicillin expandase (DAOCS) with substitution G79E (protein, UniProt P18548 1-311, looked up, variant G79E) Deacetoxycephalosporin C …: MDTTVPTFSLAELQQGLHQDEFRRCLRDKGLFYLTDCGLTDTELKSAKDLVIDFFEHGSEAEKRAVTSPVPTMRRGFTELESESTAQITNTGSYSDYSMCYSMGTADNLFPSGDFERIWTQYFDRQYTASRAVAREVLRATGTEPDGGVEAFLDCEPLLRFRYFPQVPEHRSAEEQPLRMAPHYDLSMVTLIQQTPCANGFVSLQAEVGGAFTDLPYRPDAVLVFCGAIATLVTGGQVKAPRHHVAAPRRDQIAGSSRTSSVFFLRPNADFTFSVPLARECGFDVSLDGETATFQDWIGGNYVNIRRTSKA	0.178 ± 0.019 S^−1
